Assay: qHTS for induction of synthetic lethality in tumor cells producing 2HG: qHTS for the HT-1080-NT fibrosarcoma cell line;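 note: NT is the 2HG producing partner of a matched IDH1 knockdown line; nearly all actives have a fitted effect of over 55% in size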; note: potency is the fitted concentration of half-maximal effect
Details: HT-1080-NT fibrosarcoma viability, CellTiter-Glo ATP luminescence, 48 h; series mostly up to 46.1 µM
Screen size: about 360,000 compounds; about 6,000 (1.7%) were called active. Roughly 8% stayed inconclusive and do not appear here. The sample as a whole holds a higher share of actives than the screen did.
Test readout: Potency

Consider the reported Potency for these molecules:
O=Nc1c(O)cc(O)c2ccccc12    inactive
COC(=O)N(NC(=O)C(O)(C(C)C)C(C)C)c1ccccc1    inactive
COc1ccc(NC(=O)COC(=O)C2COc3ccccc3O2)cc1 (stereo unspecified)    inactive
CCOC(=O)[C@]12CCCC=C1N(Cc1ccc(Cl)cc1Cl)C(=O)[C@H](CC(=O)N1CCCCC1)C2    inactive
CCOC(=O)/C(=N\Nc1cc(Cl)ccc1Cl)N1CCN(C)CC1    16.4 µM (active)
O=S1(=O)CC(N2CCSCC2)CN1Cc1cn(Cc2cccc(Cl)c2)nn1 (stereo unspecified)    inactive

For the molecule CCCC(O)(CCC)C(=O)NN(C(=O)CCl)c1cccc(C)c1 , what Potency is on record?
6.51 µM (active)

Quick one: Potency of COc1cccc(/C=C2\SC(=S)N(CCCC(=O)N3CCOCC3)C2=O)c1 ?
inactive

What value of Potency has been recorded for this entry: COC(=O)c1ccc2nc(-c3ccc(C)cc3)c(Cc3ccc(OC)cc3C)n2c1
inactive

So what does the record say about Potency for CC(C)(C)C1CCC(=O)N2CCC[C@]2(c2ccccc2)C1 (stereo partly specified) ?
inactive

// lookup Potency for O=C1c2ccccc2-c2ccccc2NC1O (stereo unspecified)
inactive

----------
Assay: qHTS for induction of synthetic lethality in tumor cells producing 2HG: qHTS for the HT-1080-NT fibrosarcoma cell line;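 note: NT is the 2HG producing partner of a matched IDH1 knockdown line; nearly all actives have a fitted effect of over 55% in size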; note: potency is the fitted concentration of half-maximal effect
Settings: HT-1080-NT fibrosarcoma viability, CellTiter-Glo ATP luminescence, 48 h; series mostly up to 46.1 µM
Out of some 360,000 compounds screened, about 6,000 (1.7%) were called active. Not shown: some 8% with an inconclusive outcome. This excerpt belongs to a sample that is enriched for actives.
Test readout: Potency

Completed entries (count: 5):
CCCCNC(=O)C[C@@H]1C[C@@]2(C(=O)OCC)CCC=C2N(Cc2ccco2)C1=O    inactive
CC(C)(C)Nc1nc(-c2ccccn2)nc2ccccc12    inactive
Cn1c(=O)c([N+](=O)[O-])c(Oc2ccccc2)c2ccccc21    18.4 µM (active)
CC(=O)C1C(c2cccc(Oc3ccccc3)c2)NC(=O)NC1(O)C(F)(F)F (stereo not given)    inactive
NC(=O)c1ccccc1N(Cc1ccccc1)S(=O)(=O)c1ccccc1    inactive

So what does the record say about Potency for CC1=NN(c2ccc(Cl)c(C(=O)O)c2)C(=O)/C1=C/c1ccc(-c2ccccc2[N+](=O)[O-])o1 ?
inactive

Look at this compound and give its reported Potency. O=C1NC(c2ccc(-c3ccccc3[N+](=O)[O-])o2)C(C(=O)c2ccc(Cl)cc2)C(O)(C(F)(F)F)N1 (stereo not given)
16.4 µM (active)

Name the reported Potency value associated with the compound CC(Nc1nc(C(F)(F)F)nc2ccccc12)c1cccs1 (stereo not given)
20.6 µM (active)

Record request: Potency value, item Cc1ccc(-c2nc3ccc(Br)cn3c2Cc2ccccc2C(F)(F)F)cc1
inactive

What Potency value was documented for this compound, Cc1cc(C)c(-c2c(O)c3ccccc3n(C)c2=O)c(C)c1 ?
inactive

----------
Test: qHTS for induction of synthetic lethality in tumor cells producing 2HG: qHTS for the HT-1080-NT fibrosarcoma cell line;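 note: NT is the 2HG producing partner of a matched IDH1 knockdown line; nearly all actives have a fitted effect of over 55% in size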
Settings: HT-1080-NT fibrosarcoma viability, CellTiter-Glo ATP luminescence, 48 h; series mostly up to 46.1 µM
The whole screen tested about 360,000 compounds, of which about 6,000 (1.7%) were called active. Another 8% or so got no clear call; they are omitted. Calls come from the whole dose curve; as a rule, active = well fitted cell-killing curve with a large enough effect; inconclusive = small, poorly fitted or top-dose-only effect, or effect the other way; inactive = flat fitted curve, though single readings scatter. For the sample, actives were picked, then their nearest neighbours and some compounds at random.
Output constraint: value belongs to true (1) for active, false (0) for inactive

For NC(=O)Cn1cc(/C=N\NS(=O)(=O)c2ccccc2)c2ccccc21 , what call appears in the results of this test?
false (0)

What is the recorded call for this compound in the test? O=C(Nc1cc(C(F)(F)F)ccc1Cl)C(=O)N1CCCCC1
false (0)

Assay result, entry COC(=O)Cn1cc(/C=C/[N+](=O)[O-])c2ccccc21 — outcome?
true (1)

Please share the test call associated with Clc1ccc(-c2cc(-c3ccccn3)on2)c(Cl)c1 .
false (0)

Hi, sorry to bother you, what did the test record for CCn1c(COc2c(C)cccc2C)nnc1SCc1nc2ccccc2c(=O)[nH]1 ?
false (0)

Outcome logged for Clc1ccc(-c2cc(C3CCNCC3)[nH]n2)c(Cl)c1 in this assay:
true (1)

----------
Test: qHTS for induction of synthetic lethality in tumor cells producing 2HG: qHTS for the HT-1080-NT fibrosarcoma cell line;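 note: NT is the 2HG producing partner of a matched IDH1 knockdown line; nearly all actives have a fitted effect of over 55% in size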
Details: HT-1080-NT fibrosarcoma viability, CellTiter-Glo ATP luminescence, 48 h; series mostly up to 46.1 µM
Among all 360,000 compounds or so, about 6,000 (1.7%) were called active. Another 8% or so got no clear call; they are omitted. Calls come from the whole dose curve; as a rule, active = well fitted cell-killing curve with a large enough effect; inconclusive = small, poorly fitted or top-dose-only effect, or effect the other way; inactive = flat fitted curve, though single readings scatter. This is one part of a sample in which actives are shown more often than they occur.
// classify into active, inactive

Give the logged outcome of this assay for the following compound: O=S1(=O)C[C@@H](N2CCN(CCO)CC2)[C@H](COCc2ccccc2)N1
inactive

# lookup: test call for Cc1cc(NC(=O)CCN2CCN(Cc3ccccc3)CC2)ccc1Br
active

Which outcome was assigned to COC(=O)Nc1nc2ccc(Sc3ccccc3)cc2[nH]1 in this test?
active

# lookup: test call for CCOC(=O)C(C)n1cnc2c(nnn2-c2cccc(OC)c2)c1=O (stereo not drawn)
inactive

# outcome recorded in this test, key = CN(c1ccccc1)S(=O)(=O)c1cc(C(=O)Nc2nc3ccccc3[nH]2)ccc1Cl
inactive

Write down the call the test reported for this compound. Item: CCOC(=O)C1=C(C)c2ccccc2OC1(C)C(=O)OCC (stereo not drawn)
inactive

Kindly provide the recorded test outcome for the following compound: CC(=O)NN=C(C)c1ccc(NC(=O)C2CC2)cc1
inactive

Please state the recorded outcome for this compound: COc1ccc(CNC(=O)[C@H](Cc2c[nH]c3ccccc23)NC(C)=O)cc1OC
inactive

Each compound tested received a call. Report the one for COCCNC(=O)c1cc2c(Br)ccc(Br)c2nc1N .
inactive

// param item: CCC(C(=O)OCC(=O)Nc1c(Cl)cc(Cl)cc1Cl)c1ccccc1 (stereo not drawn) ; yields the recorded call
inactive

Hi, sorry to bother you, what did the test record for COc1ccc(-c2cc(NC=O)c3ncc(-c4cccc(C(=O)N(C)C)c4)n3c2)c(OC)c1 ?
inactive

How was O=c1cc(-c2ccccc2)[nH]c2cc(F)ccc12 classified in this test?
active

For CCOC(=O)c1ccccc1OC(=O)Oc1ccccc1C(=O)OCC , which call appears in the assay record?
inactive

Which result was noted for this compound in the test: CCOc1ccc2[nH]c(=O)c(CN(Cc3nnnn3Cc3ccccc3)CC3CCCO3)cc2c1 (stereo not drawn)
active

In this assay, the call recorded for Cc1ccc(-c2nc3c(Cl)cc(C(F)(F)F)cn3c2Cc2cccc(Cl)c2)cc1 was what?
inactive

For this compound, state the assay outcome: CCOc1ccc(CCN2C(=O)c3cccnc3C2=O)cc1OCC
inactive

Returns: the outcome recorded for Cc1ccc(NC(=O)Cn2sc3ccccc3c2=O)cc1 in this assay.
inactive

Recorded test call requested for C=CCOc1cccc(C2C(C(=O)c3ccc(C)o3)=C(O)C(=O)N2CCN2CCOCC2)c1 (stereo not drawn)
inactive

Outcome logged for NC1=CC(=O)C(=O)c2cccnc21 in this assay:
active

Recorded call for CN1OC[C@@H]2CN(S(=O)(=O)c3cccc4ccccc34)[C@H](c3ccc(N4CCCCC4)cc3)C[C@@H]21 ?
inactive

Please state the recorded outcome for this compound: COc1ccc(NC(=O)CSc2nnnn2-c2cccc(OC)c2)cc1
inactive

For CCC(C(=O)OCC(=O)Nc1ccccc1-c1ccccc1)c1ccccc1 (stereo not drawn) , what call appears in the results of this test?
inactive

Any idea what this test logged for Cc1ccc(F)c(S(=O)(=O)NC(=O)C2(C)CCN2C(=O)CCc2cccs2)c1 (stereo not drawn) ?
inactive

Give the logged outcome of this assay for the following compound: CCC(C(=O)OCC(=O)Nc1ccc(C(=O)Nc2ccc(OC)cc2)cc1)c1ccccc1 (stereo not drawn)
active

Tell me the assay call for Cc1cc(=O)c2ccc(NC(=O)c3ccccc3)cc2[nH]1 please.
inactive

I'd appreciate the recorded outcome for N#Cc1ccc(C(C(=O)NCc2ccccc2)n2c(=O)c(-c3ccco3)nc3ccccc32)cc1 (stereo not drawn) from this test.
inactive

Could you kindly confirm the outcome this assay logged for CC1=C(C(=O)N2CCOCC2)CC(CC(=O)NCCCN(C)C)C(=O)N1Cc1ccc(C(C)(C)C)cc1 (stereo not drawn) ?
inactive

Please indicate how the test categorized CC1(C(=O)NS(=O)(=O)C2CC2)CCCN(C(=O)CSc2ccccc2)C1 (stereo not drawn) .
inactive

What did this assay record as the result for COc1ccc(NC(=O)CNC(=O)Cc2ccccc2)cc1OC ?
inactive

Record request — test call for COC(=O)[C@]12CCCCC=C1N(Cc1ccc3c(c1)OCO3)C(=O)[C@H](CC(=O)NCc1cccs1)C2
inactive

Fill in: this test's call for O=C(CN1CCN(Cc2ccccc2)CC1)Nc1ccc(F)c(F)c1 is ___
inactive

Please let me know the test result on file for COc1ccc(/C=N/Nc2ccccc2C(=O)O)cc1 .
inactive

Write down the call the test reported for this compound. Item: Cc1ccc(-c2cc(=O)c3ccc(F)cc3[nH]2)cc1
inactive

I'd appreciate the recorded outcome for C[C@H](O)[C@@H]1C(=O)N2CCc3c([nH]c4ccccc34)[C@@H]2C[C@@H]1N(C)C(=O)Nc1ccc(F)cc1 from this test.
inactive

Which result was noted for this compound in the test: COC(=O)c1ccc2nc(-c3cccc(Br)c3)c(Cc3ccccc3C(F)(F)F)n2c1
inactive

Recorded call for CC1(C)OC(=O)C2=C(CC(c3ccccc3)OC2CCc2ccccc2)O1 (stereo not drawn) ?
inactive

Assay result, entry CCOC(=O)CNC(=O)N1c2ccccc2Sc2ccccc21 — outcome?
inactive

// outcome(item) with item = COc1ccc(CNC(=O)Cc2ccc(-c3ccccc3)cc2)cc1OC
active

Could you please tell me the result logged for CCOC(=O)c1c(C)[nH]c2c1-c1ccccc1C(=O)C2=O in this assay?
active

Each compound tested received a call. Report the one for N#CCCN(C(=O)Nc1ccc(Cl)c(Cl)c1)C1CCCCC1 .
inactive

Given CCN1/C(=C/C(=S)Nc2ccccc2)Sc2ccccc21 , state the outcome it received in this test.
active

Record request — test call for CCOC(=O)N1CCN(CCC(=O)Nc2ccccc2)CC1
inactive

Check the results log: what was the call for CCN(CC)C(=O)C1=C(C)N(Cc2ccccc2)C(=O)C(CC(=O)NC(c2ccccc2)c2ccccc2)C1 (stereo not drawn) ?
inactive
